# METHOD_NOTES: non-covalent RecA intein splicing inhibitors, dose response, biochemical, cell-free, fluorescence, secondary screen (AID 449750)
Active and inactive are the calls of the source. How the calls were made is not given here.
Respond using exactly one of the listed classes: active, inactive

# lookup: test call for Cc1ccsc1C=Nc1ccc(O)cc1 inactive

# lookup: test call for O=C1C=C(Nc2cccc3cccnc23)c2ccccc2C1=O active

# lookup: test call for COc1ccccc1-n1nnnc1S(=O)(=O)Cc1ccc(Cl)cc1 inactive

# lookup: test call for COc1cccc(C(c2c(C)[nH]n(-c3ccccc3)c2=O)c2c(C)[nH]n(-c3ccccc3)c2=O)c1O active

# lookup: test call for CCN(CC)C(=O)CSc1nnc2nnc3cc(OC)ccc3n12 inactive

# lookup: test call for O=C(Cc1cc(=O)[nH][nH]1)N/N=C/c1c(F)cccc1Cl active

# lookup: test call for CCOC(=O)c1nnc(-c2cccs2)nc1Oc1ccc(Cl)cc1 inactive

# lookup: test call for Cn1c(=O)c([N+](=O)[O-])c(-n2ccnc2)c2ccccc21 inactive

# lookup: test call for Cc1cccc(Cn2ncc(Cl)c(Cl)c2=O)c1 active

# lookup: test call for Cc1[nH]n(-c2ccccc2)c(=O)c1/C=N\NC(=O)C1COc2ccccc2O1 (stereo unspecified) active

# lookup: test call for O=S(=O)(Nc1ccc(O)c2ccccc12)c1ccc(OC(F)(F)F)cc1 active

###

# METHOD_NOTES: non-covalent RecA intein splicing inhibitors, dose response, biochemical, cell-free, fluorescence, secondary screen (AID 449750)
Calls of active or inactive are those of the source. The rule behind the calls is not given here.
Respond using exactly one of the listed classes: Yes (active), No (inactive)

# lookup: test call for CN(C)c1ccc(NC(=O)c2ccncc2)c2ccccc12 No

# lookup: test call for CS(=O)(=O)c1nc(-c2ccco2)cc(C(F)(F)F)n1 No

# lookup: test call for O=S(=O)(Nc1c(O)ccc2ccccc12)c1ccc(F)cc1 Yes

# lookup: test call for O=C(Oc1ccccc1N1C(=O)CCC1=O)c1ccco1 No

# lookup: test call for CS(=O)(=O)N1CCC(Oc2ccccc2C(=O)N2CCCCC2CO)CC1 (stereo not given) No

# lookup: test call for Cc1cccc(C)c1-n1cccc1/C=C1\SC(=S)N(c2cccc(C(=O)O)c2)C1=O Yes

# lookup: test call for N#Cc1nccnc1S(=O)(=O)c1cccs1 No

# lookup: test call for O=C(c1ccc(Cl)cc1)n1cnc2ccccc21 No

# lookup: test call for C=CS(=O)c1sc(Cl)c(N2CCOCC2)c1[N+](=O)[O-] (stereo not given) No

# lookup: test call for CC1(C)CC(=O)C(C2(O)C(=O)NC(=O)NC2=O)=C(O)C1 Yes

# lookup: test call for Cc1[nH]nc2c1C1(CCOCC1)C(C#N)=C(N)O2 No

# lookup: test call for O=C1C(Cl)=C(Nc2ccc3cn[nH]c3c2)C(=O)c2ccccc21 Yes

# lookup: test call for CC1=NN(c2ccc(N)cc2)C(=O)C1 Yes

# lookup: test call for Cc1ccc(C)c(NC2=C(Cl)C(=O)OC2OC(=O)c2ccco2)c1 (stereo not given) No

# lookup: test call for CCc1nnc(NC(=O)c2nc(S(=O)(=O)Cc3ccc(C)cc3)ncc2Cl)s1 No

# lookup: test call for CCCCCCCCCCOC(=O)Cn1c(COc2cccc(OC)c2)[n+](C)c2ccccc21 Yes

# lookup: test call for Cc1[nH]n(-c2ccccc2)c(=O)c1C(c1ccc([N+](=O)[O-])cc1)c1c(C)[nH]n(-c2ccccc2)c1=O Yes

# lookup: test call for CCn1nc(/C=C/c2ccccc2)nc2c(=O)n(C)c(=O)nc1-2 Yes

# lookup: test call for COc1ccc(-c2csc(CCN3N=C(C)CC3=O)n2)cc1 Yes

# lookup: test call for CCc1ccc(NC(=O)c2nc(S(=O)(=O)Cc3ccccc3)ncc2Cl)cc1 No

# lookup: test call for CCCc1nnc(NC(=O)c2nc(S(=O)(=O)Cc3cccc(C)c3)ncc2Cl)s1 No

# lookup: test call for O=C(O)CC1S/C(=N/N=C/c2ccc(-c3ccccc3[N+](=O)[O-])o2)NC1=O (stereo not given) Yes

# lookup: test call for C#CCOc1ccc(/C=C2/C(=O)N(c3cccc(C(=O)O)c3)N=C2C)cc1OC Yes

# lookup: test call for CC(C)CNC(=O)c1c(N)n(Cc2ccc3c(c2)OCO3)c2nc3ccccc3nc12 Yes

# lookup: test call for N#Cc1ncc(-c2ccc3c(c2)OCCOCCOCCOCCO3)nc1C#N No

# lookup: test call for Oc1cccc(C=Nc2cccc3ccccc23)c1O Yes

# lookup: test call for CC(C)N(c1ccccc1)c1ccc(NC(=O)CCl)cc1 Yes

# lookup: test call for CCOC(=O)C1=C(c2ccccc2)NC(N)=NC1c1ccc(OCc2ccc(Cl)cc2)c(OC)c1 (stereo not given) Yes

# lookup: test call for CCN(CC)CCN1C(=O)c2cccc3cc(N)cc(c23)C1=O Yes

# lookup: test call for CC1=NNC(=O)C1Cc1c(Cl)cccc1Cl (stereo not given) No

# lookup: test call for CNCc1ccccc1Sc1ccc(O)c(O)c1 No

# lookup: test call for Cc1[nH]nc2c1C(c1cccc(OC(=O)N3CCOCC3)c1)C(C#N)=C(N)O2 (stereo not given) No

# lookup: test call for N#C/C(=C/c1ccncc1)c1nc2ccccc2s1 No

# lookup: test call for COc1cc(C2C(C#N)=C(N)Oc3n[nH]c(C)c32)cc2c1OCO2 (stereo not given) Yes

# lookup: test call for CC1=C(CC(=O)c2ccc(Cl)cc2)C(=O)c2ccccc2C1=O Yes

# lookup: test call for CCc1[nH]nc2c1C(c1cccnc1)C(C#N)=C(N)O2 (stereo not given) No

# lookup: test call for N=c1c2c(-c3ccccc3)c(-c3ccccc3)n(Cc3ccco3)c2ncn1Cc1ccco1 Yes

# lookup: test call for COC(=O)c1c(NC(=O)/C=C/C(=O)O)sc(Cc2ccccc2)c1C Yes

# lookup: test call for Cc1cccc(CS(=O)(=O)c2nnc([C@H](Cc3ccccc3)NC(=O)OC(C)(C)C)o2)c1 No

# lookup: test call for COC(=O)Cc1[nH]nc2c1C1(CCSCC1)C(C#N)=C(N)O2 No

# lookup: test call for CC(=O)c1ccc(-c2cccc(-c3nc4ccccn4c3NC3CCCCC3)c2)cc1 Yes

# lookup: test call for Cc1cc(Br)c2c(c1)/C(=C/C(=O)c1cccs1)C(=O)N2 No

# lookup: test call for CC1=C(C)CC2(SC1)C(=O)N(c1ccccc1)N=C2N (stereo not given) No

# lookup: test call for Cc1nn(-c2ccccc2)c(Cl)c1CN(C(=O)CCl)c1cccc2ccccc12 Yes

# lookup: test call for CC1=NNC(=O)C1C(c1ccccc1)C(C#N)C#N (stereo not given) No

###

# METHOD_NOTES: non-covalent RecA intein splicing inhibitors, dose response, biochemical, cell-free, fluorescence, secondary screen (AID 449750)
Active and inactive are the calls of the source. The rule behind the calls is not given here.
Respond using exactly one of the listed classes: active, inactive

# lookup: test call for COc1ccc(C(=O)/C(=C/c2cccs2)c2nc3ccccc3o2)cc1 inactive

# lookup: test call for O=C(NC(NC(=S)Nc1ccc(Cl)cc1Cl)C(Cl)(Cl)Cl)c1cccc([N+](=O)[O-])c1 (stereo not given) active

# lookup: test call for O=C(OCn1ncc(Cl)c(Cl)c1=O)c1ccc(C(F)(F)F)cc1 active

# lookup: test call for O=C(O)CN1C(=O)/C(=C\c2cccc(OC(=O)c3ccco3)c2)SC1=S inactive

# lookup: test call for CCOC(=O)N/N=C\c1ccc(OC(=O)c2ccco2)cc1 inactive

###

# METHOD_NOTES: non-covalent RecA intein splicing inhibitors, dose response, biochemical, cell-free, fluorescence, secondary screen (AID 449750)
Activity calls are given as the source filed them. No rule for the calls is given here.
Respond using exactly one of the listed classes: yes (active), no (inactive)

# lookup: test call for C=CCOC(=O)C1=C(C)NC(=O)NC1c1ccc(OC(=O)c2ccco2)c(OC)c1 (stereo unspecified) no

# lookup: test call for COc1ccc(C(=O)/C=C/Sc2nc3ccccc3o2)cc1 yes

# lookup: test call for Cc1nccn1-c1c([N+](=O)[O-])c(=O)n(C)c2ccccc12 no

# lookup: test call for O=C1/C(=C/c2cccc([N+](=O)[O-])c2)CCc2ccccc21 yes

# lookup: test call for CC1=C(C)/C(=N\OS(=O)(=O)c2ccccc2)C=CC1=O no

# lookup: test call for COc1cc(Br)c(C(=O)c2nccc3cc(OC)c(OC)cc23)cc1OC yes

# lookup: test call for CC(=O)N(CCC(Cc1ccccc1)c1ccc2c(c1)OCO2)Cc1ccccc1F (stereo unspecified) yes

# lookup: test call for COC(=O)COc1ccc(C(c2c(C)[nH][nH]c2=O)c2c(C)[nH][nH]c2=O)cc1 yes

# lookup: test call for COC(=O)[C@@H]1[C@@H](C(=O)OC)C2(c3ccccc3-c3ccccc32)N(c2ccc(Cl)cc2)N1C#N yes

# lookup: test call for O=C(N/N=C/c1ccc(-c2ccccc2[N+](=O)[O-])o1)[C@H]1C[C@@H]1c1ccccc1 yes

# lookup: test call for O=C(CCl)Nc1cc(S(=O)(=O)N2CCCCCC2)ccc1Cl yes

# lookup: test call for O=C(/C=C/c1ccc(O)cc1)c1ccc(NC2=C(N3CCCCC3)C(=O)c3ccccc3C2=O)cc1 yes

# lookup: test call for CCCNC(=O)c1nnsc1S(=O)c1ccc(Cl)cc1 (stereo unspecified) yes

# lookup: test call for COc1cc(C(c2c(C)[nH][nH]c2=O)c2c(C)[nH][nH]c2=O)cc(Br)c1OC yes

# lookup: test call for O=C(O)CSc1c2c(nc3cc(C(=O)Nc4cccc(C(F)(F)F)c4)ccc13)CCCC2 yes

# lookup: test call for O=C(Nc1ccc(F)cc1)c1nn(-c2ccccc2)c(=O)cc1Cl yes

# lookup: test call for Cc1ccc(C(=O)N/N=C\c2cc(Br)c(Br)o2)cn1 yes

# lookup: test call for O=c1cc(-c2ccc(Br)cc2)[nH][nH]1 yes

# lookup: test call for O=C(CCNc1cccc(F)c1)c1cccc([N+](=O)[O-])c1 no

# lookup: test call for O=c1[nH]cc(N=Cc2cc(Cl)cc(Cl)c2O)c(=O)[nH]1 no

# lookup: test call for COc1ccc(C(=O)Nc2ccc(O)c3ccccc23)cc1 yes
